src = paper PMC9238401

test system: horse erythrocytes; details: TRIS buffer pH 7.2, 1 h, 37°C, absorbance 540 nm, relative to melittin 100 μM, ± confidence interval (α = 0.05)
No end group written: not given here.
Rule: yes for Percent hemolysis at 250 μM not less than 20%, no for anything less.

Example cases with answers are listed next.
substance	label value
H-KKVVFWVKFKYGIHTH-NH2 [KSLW-PIP1]	no
VWNQPVRGFKVYE-OH [Pep13]	no
FKLFKKILKVL-KKLFKKILKKL-NH2 [BP13-BP16]	yes
FKLFKKILKVL-NH2 [BP13, reference compound]	yes

API: the following record is the query input.
Inquiry: Is the recorded value of Percent hemolysis at 250 μM equal to or greater than 20% for this substance? Ac-KKLfKKILKK(COC3H7)L-RINSAKDDAAGLQIA-OH [BP475-flg15]
Reply text: no
